- recorded.conditions: in acetone, 310.15 K
measurement.label: solubility (mole fraction)
Give a plain numeric answer without units written out.

Short answer for CN1CCN(c2cc3c(cc2F)c(=O)c(C(=O)O)cn3-c2ccc(F)cc2)CC1 : solubility (mole fraction) was 0.0104

---

- recorded.conditions: in methanol, 303.15 K
measurement.label: solubility (mole fraction)

Short answer for CN1CCN(c2cc3c(cc2F)c(=O)c(C(=O)O)cn3-c2ccc(F)cc2)CC1 : solubility (mole fraction) was 0.0084

---

- recorded.conditions: in acetone, 313.15 K
measurement.label: solubility (mole fraction)

Short answer for CN1CCN(c2cc3c(cc2F)c(=O)c(C(=O)O)cn3-c2ccc(F)cc2)CC1 : solubility (mole fraction) was 0.011

---

- recorded.conditions: in acetone, 303.15 K
measurement.label: solubility (mole fraction)
Give a plain numeric answer without units written out.

Short answer for CN1CCN(c2cc3c(cc2F)c(=O)c(C(=O)O)cn3-c2ccc(F)cc2)CC1 : solubility (mole fraction) was 0.0081

---

- recorded.conditions: in acetone, 295.15 K
measurement.label: solubility (mole fraction)
Give a plain numeric answer without units written out.

Short answer for CN1CCN(c2cc3c(cc2F)c(=O)c(C(=O)O)cn3-c2ccc(F)cc2)CC1 : solubility (mole fraction) was 0.0058

---

- recorded.conditions: in ethanol, 308.15 K
measurement.label: solubility (mole fraction)
Give a plain numeric answer without units written out.

Short answer for CN1CCN(c2cc3c(cc2F)c(=O)c(C(=O)O)cn3-c2ccc(F)cc2)CC1 : solubility (mole fraction) was 0.0754

---

- recorded.conditions: in methanol, 305.15 K
measurement.label: solubility (mole fraction)
Give a plain numeric answer without units written out.

Short answer for CN1CCN(c2cc3c(cc2F)c(=O)c(C(=O)O)cn3-c2ccc(F)cc2)CC1 : solubility (mole fraction) was 0.0088

---

- recorded.conditions: in methanol, 313.15 K
measurement.label: solubility (mole fraction)
Give a plain numeric answer without units written out.

Short answer for CN1CCN(c2cc3c(cc2F)c(=O)c(C(=O)O)cn3-c2ccc(F)cc2)CC1 : solubility (mole fraction) was 0.0104

---

- recorded.conditions: in acetone, 300.15 K
measurement.label: solubility (mole fraction)
Give a plain numeric answer without units written out.

Short answer for CN1CCN(c2cc3c(cc2F)c(=O)c(C(=O)O)cn3-c2ccc(F)cc2)CC1 : solubility (mole fraction) was 0.0073

---

- recorded.conditions: in methanol, 308.15 K
measurement.label: solubility (mole fraction)
Give a plain numeric answer without units written out.

Short answer for CN1CCN(c2cc3c(cc2F)c(=O)c(C(=O)O)cn3-c2ccc(F)cc2)CC1 : solubility (mole fraction) was 0.0095

---

- recorded.conditions: in ethanol, 303.15 K
measurement.label: solubility (mole fraction)

Short answer for CN1CCN(c2cc3c(cc2F)c(=O)c(C(=O)O)cn3-c2ccc(F)cc2)CC1 : solubility (mole fraction) was 0.0636

---

- recorded.conditions: in methanol, 300.15 K
measurement.label: solubility (mole fraction)

Short answer for CN1CCN(c2cc3c(cc2F)c(=O)c(C(=O)O)cn3-c2ccc(F)cc2)CC1 : solubility (mole fraction) was 0.0077

---

- recorded.conditions: in ethanol, 305.15 K
measurement.label: solubility (mole fraction)
Give a plain numeric answer without units written out.

Short answer for CN1CCN(c2cc3c(cc2F)c(=O)c(C(=O)O)cn3-c2ccc(F)cc2)CC1 : solubility (mole fraction) was 0.0683
